Below, each of the molecules is paired with its reported combination Emax value.
test system: OSC-20 (Oral Cavity Carcinoma); assay: combination Emax (second highest fraction inhibited in the dose matrix, 72 h); higher = more inhibition; extreme values may be limits of the assay

Entry under test: COc1cccc(OCCCN)c1-c1cc(Nc2cnc(C#N)cn2)n[nH]1 [Prexasertib] + CCc1c2c(nc3ccc(O)cc13)-c1cc3c(c(=O)n1C2)COC(=O)[C@]3(O)CC [SN-38] (first compound max 1 µM, 7x7, partner max 0.3 µM) . Its combination Emax was 0.735

Entry under test: C[C@@H](c1ccc2nccn2c1)n1nnc2ncc(-c3cnn(C)c3)nc21 [Savolitinib] + CN(CC[C@H](CSC1=CC=CC=C1)NC2=C(C=C(C=C2)S(=O)(=O)NC(=O)C3=CC=C(C=C3)N4CCC(CC4)[C@H](C5=CC=CC=C5C6=CC=C(C=C6)Cl)O)S(=O)(=O)C(F)(F)F)CCO [AZD4320] (first compound max 1 µM, 7x7, partner max 1 µM) . Its combination Emax was 0.129

Entry under test: CCc1c2c(nc3ccc(O)cc13)-c1cc3c(c(=O)n1C2)COC(=O)[C@]3(O)CC [SN-38] + O=C(c1cc(Cc2n[nH]c(=O)c3ccccc23)ccc1F)N1CCN(C(=O)C2CC2)CC1 [Olaparib] (first compound max 0.3 µM, 7x7, partner max 10 µM) . Its combination Emax was 0.746

Entry under test: CN(C)CCCOc1ccc(-c2ccc3ncc4c(c3c2)n(C2CCOCC2)c(=O)n4C)cn1 [AZD0156] + CCN(CCO)CCCOc1ccc2c(Nc3cc(CC(=O)Nc4cccc(F)c4)[nH]n3)ncnc2c1 [AZD2811] (first compound max 1 µM, 7x7, partner max 1 µM) . Its combination Emax was 0.353

Turning now to a further molecule:
Entry under test: C=CCn1c(=O)c2cnc(Nc3ccc(N4CCN(C)CC4)cc3)nc2n1-c1cccc(C(C)(C)O)n1 [AZD1775] + C1CN(CCC1(C(=O)N[C@@H](CCO)C2=CC=C(C=C2)Cl)N)C3=NC=NC4=C3C=CN4 [Capivasertib] (first compound max 3 µM, partner max 3 µM) . Its combination Emax was 0.619

---

Below, each of the molecules is paired with its reported combination Emax value.
system: PANC-04-03 (Pancreatic Carcinoma); experiment: combination Emax (second highest fraction inhibited in the dose matrix, 72 h); higher = more inhibition; extreme values may be limits of the assay
Hey, just send me the number, nothing else.

As a guide, the following entries are already answered.
Entry under test: Cc1cc2ncnn2cc1Nc1ncc2c(n1)n(C1CCOCC1)c(=O)n2C [AZD7648] + COc1cc([C@@H]2c3cc4c(cc3[C@@H](O[C@@H]3O[C@@H]5CO[C@@H](C)O[C@H]5[C@H](O)[C@H]3O)[C@H]3COC(=O)[C@H]23)OCO4)cc(OC)c1O [Etoposide] (first compound max 10 µM, 7x7, partner max 10 µM) . Its combination Emax was 0.335

Entry under test: CS(=O)(=O)CCNCc1ccc(-c2ccc3ncnc(Nc4ccc(OCc5cccc(F)c5)c(Cl)c4)c3c2)o1 [Lapatinib] + Cn1cnc2c(F)c(Nc3ccc(Br)cc3Cl)c(C(=O)NOCCO)cc21 [Selumetinib] (first compound max 10 µM, 7x7, partner max 10 µM) . Its combination Emax was 0.77

Turning now to a further molecule:
Entry under test: Cc1nc(Nc2ncc(C(=O)Nc3c(C)cccc3Cl)s2)cc(N2CCN(CCO)CC2)n1 [Dasatinib] + CC(=O)Nc1cccc(-n2c(=O)n(C3CC3)c(=O)c3c(Nc4ccc(I)cc4F)n(C)c(=O)c(C)c32)c1 [Trametinib] (first compound max 2 µM, 7x7, partner max 1 µM) . Its combination Emax was 0.781

---

system: NB69 (Neuroblastoma); assay: Bliss excess, mean over the matrix (fraction); higher = more synergy;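 also: after 72 h of two-drug dosing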
Value Kind: Bliss excess

Entry under test: CN(CCO)CC[C@H](CSc1ccccc1)Nc1ccc(S(=O)(=O)NC(=O)c2ccc(N3CCC([C@@H](O)c4ccccc4-c4ccc(Cl)cc4)CC3)cc2)cc1S(=O)(=O)C(F)(F)F [AZD4320] + Cn1cnc2c(F)c(Nc3ccc(Br)cc3Cl)c(C(=O)NOCCO)cc21 [Selumetinib] (first compound max 1 µM, 7x7, partner max 3 µM) . Its Bliss excess was -0.0973

Turning now to a further compound:
Entry under test: C=CCn1c(=O)c2cnc(Nc3ccc(N4CCN(C)CC4)cc3)nc2n1-c1cccc(C(C)(C)O)n1 [AZD1775] + C[C@@H]1COCCN1C2=NC(=NC(=C2)C3(CC3)[S@](=N)(=O)C)C4=C5C=CNC5=NC=C4 [AZD6738] (first compound max 1 µM, partner max 10 µM) . Its Bliss excess was 0.0351

---

Below, each of the compounds is paired with its reported combination Emax value.
tested on: Caov-4 (Ovarian Carcinoma); assay: combination Emax (second highest fraction inhibited in the dose matrix, 72 h); higher = more inhibition; extreme values may be limits of the assay
Hey, just send me the number, nothing else.

As a guide, the following entries are already answered.
Bench note, Caov-4 (Ovarian Carcinoma): entry NC1(C(=O)N[C@@H](CCO)c2ccc(Cl)cc2)CCN(c2ncnc3[nH]ccc23)CC1 [Capivasertib] + Cn1cnc2c(F)c(Nc3ccc(Br)cc3Cl)c(C(=O)NOCCO)cc21 [Selumetinib] (first compound max 10 µM, 7x7, partner max 10 µM) , its combination Emax = 0.613

Bench note, Caov-4 (Ovarian Carcinoma): entry CC1(C)CCC(CN2CCN(c3ccc(C(=O)NS(=O)(=O)c4ccc(NCC5CCOCC5)c([N+](=O)[O-])c4)c(Oc4cnc5[nH]ccc5c4)c3)CC2)=C(c2ccc(Cl)cc2)C1 [Venetoclax] + CN(C)CCCOc1ccc(-c2ccc3ncc4c(c3c2)n(C2CCOCC2)c(=O)n4C)cn1 [AZD0156] (first compound max 1 µM, 7x7, partner max 1 µM) , its combination Emax = 0.226

Next:
Bench note, Caov-4 (Ovarian Carcinoma): entry NC1(C(=O)N[C@@H](CCO)c2ccc(Cl)cc2)CCN(c2ncnc3[nH]ccc23)CC1 [Capivasertib] + CC(C)n1c(=O)n(C)c2cnc3cc(F)c(-c4ccc(OCCCN5CCCCC5)nc4)cc3c21 [AZD1390] (first compound max 10 µM, 7x7, partner max 0.3 µM) , its combination Emax = 0.245

---

test system: OVCAR-4 (Ovarian Carcinoma); assay: combination Emax (second highest fraction inhibited in the dose matrix, 72 h); higher = more inhibition; extreme values may be limits of the assay
Value Kind: combination Emax
Hey, just send me the number, nothing else.

Entry under test: CC1(C)CCC(CN2CCN(c3ccc(C(=O)NS(=O)(=O)c4ccc(NCC5CCOCC5)c([N+](=O)[O-])c4)c(Oc4cnc5[nH]ccc5c4)c3)CC2)=C(c2ccc(Cl)cc2)C1 [Venetoclax] + CCN(CCO)CCCOc1ccc2c(Nc3cc(CC(=O)Nc4cccc(F)c4)[nH]n3)ncnc2c1 [AZD2811] (first compound max 1 µM, 7x7, partner max 1 µM) . Its combination Emax was 0.333

Entry under test: CN(CCO)CC[C@H](CSc1ccccc1)Nc1ccc(S(=O)(=O)NC(=O)c2ccc(N3CCC([C@@H](O)c4ccccc4-c4ccc(Cl)cc4)CC3)cc2)cc1S(=O)(=O)C(F)(F)F [AZD4320] + C[C@@H](Nc1cc(F)cc(F)c1)c1cc(C(=O)N(C)C)cc2c(=O)cc(N3CCOCC3)oc12 [AZD8186] (first compound max 1 µM, 7x7, partner max 3 µM) . Its combination Emax was 0.322

Entry under test: CC(=O)c1c(C)c2cnc(Nc3ccc(N4CCNCC4)cn3)nc2n(C2CCCC2)c1=O [Palbociclib] + Cn1cnc2c(F)c(Nc3ccc(Br)cc3Cl)c(C(=O)NOCCO)cc21 [Selumetinib] (first compound max 10 µM, 7x7, partner max 10 µM) . Its combination Emax was 0.286

Entry under test: CC1(C)CCC(CN2CCN(c3ccc(C(=O)NS(=O)(=O)c4ccc(NCC5CCOCC5)c([N+](=O)[O-])c4)c(Oc4cnc5[nH]ccc5c4)c3)CC2)=C(c2ccc(Cl)cc2)C1 [Venetoclax] + Cn1cnc2c(F)c(Nc3ccc(Br)cc3Cl)c(C(=O)NOCCO)cc21 [Selumetinib] (first compound max 1 µM, 7x7, partner max 3 µM) . Its combination Emax was 0.209

Entry under test: Cn1cnc2c(F)c(Nc3ccc(Br)cc3Cl)c(C(=O)NOCCO)cc21 [Selumetinib] + C[C@@H]1COCCN1C2=NC(=NC(=C2)C3(CC3)[S@](=N)(=O)C)C4=C5C=CNC5=NC=C4 [AZD6738] (first compound max 10 µM, 7x7, partner max 10 µM) . Its combination Emax was 0.532

Turning now to a further compound:
Entry under test: CN(CCO)CC[C@H](CSc1ccccc1)Nc1ccc(S(=O)(=O)NC(=O)c2ccc(N3CCC([C@@H](O)c4ccccc4-c4ccc(Cl)cc4)CC3)cc2)cc1S(=O)(=O)C(F)(F)F [AZD4320] + C[C@@H]1COCCN1C2=NC(=NC(=C2)C3(CC3)[S@](=N)(=O)C)C4=C5C=CNC5=NC=C4 [AZD6738] (first compound max 1 µM, 7x7, partner max 10 µM) . Its combination Emax was 0.794

Hey, just so you know, these numbers are from the supplement of paper PMC11061612.
